Target: USP28 (His-tagged USP28-FL-mammalian) (Homo sapiens)
Construct: Expression of USP28 (1-1077)-TEV-6*His (pTT5 vector); made in house; host or cells: Expi293f cells (pTT5 vector)
Assay: Ubiquitin-Rhodamine 110 Assay for USP28 Activity, Example A-1(a)
Assay type: biochemical
Conditions: Ubiquitin-Rhodamine 110 assay, Example A-1(a); read-out: USP28 A-1(a) IC50 range
Description: Example A-1(a): Biochemical Assay: Ubiquitin-Rhodamine 110 Assay for USP28 Activity […] For assay formats Example A-1(a), A-1(b), and A-2, data were reported as percent inhibition compared with control wells based on the following equation: % inh=1−((FLU−AveLow)/(AveHigh−AveLow)) where FLU=measured Fluorescence, AveLow=average Fluorescence of no enzyme control (n=16), and AveHigh=average Fluorescence of DMSO control (n=16). […]
pIC50: −log10 of the molar value.
parameter: pIC50

Hey, quick one: what's pIC50 for each of these?
1. COC[C@@H]1CNCCN1c1ccc2c(c1)OC[C@H](NC(=O)c1sc3nc(C)ccc3c1N)C2
2. Cc1cnc2c(N)c(C(=O)N[C@@H]3CCc4cc(N5CCNC[C@@H](O)C5)ccc4C3)sc2n1 (single isomer, unassigned)
3. Cc1ccc2c(N)c(C(=O)N[C@H]3COc4cc(N5CCN[C@@H](C(F)(F)F)C5)ccc4C3)sc2n1
4. Cc1cnc2c(N)c(C(=O)N[C@@H]3CCc4cc(N5CC6CCC(C5)N6)ccc4C3)sc2n1 (single isomer, unassigned)

## Result
1. 7.30 to 9.00
2. 6.70 to 7.30
3. 6.70 to 7.30
4. 5.70 to 6.70

Hey, quick one: what's pIC50 for each of these?
1. CCn1ccc2cc(C(=O)N[C@H]3CCc4cc(N5C[C@H](OC)[C@@H](N)C5)cc(F)c4C3)nnc21
2. CCn1cc(Cl)c2cc(C(=O)N[C@H]3COc4c(F)c(N5CC6CCC(C5)N6)cc(F)c4C3)nnc21
3. Cc1ccc2c(N)c(C(=O)N[C@H]3COc4cc(N5C[C@@H](N)CC[C@H]5C(F)(F)F)ccc4C3)sc2n1

## Result
["< 5.70", "6.70 to 7.30", "7.30 to 9.00"]

Hey, quick one: what's pIC50 for each of these?
1. CO[C@H]1CN(c2ccc3c(c2)OC[C@H](NC(=O)c2sc4nc(C)ccc4c2N)C3)CC[C@@H]1N
2. Cc1ccc2c(N)c(C(=O)N[C@H]3Cc4ccc(N5CCNCC5)nc4[C@H](C)C3)sc2n1
3. Cc1cnc2c(N)c(C(=O)N[C@H]3COc4cc(N5CCNCC5)ncc4C3)sc2n1

## Result
1: 7.30 to 9.00; 2: 7.30 to 9.00; 3: 6.70 to 7.30

Hey, quick one: what's pIC50 for each of these?
1. Cc1cnc2c(N)c(C(=O)N[C@H]3CCc4cc(N5CC6CNCC(C5)O6)ccc4C3)sc2n1
2. CO[C@@]1(C)CN(c2ccc3c(n2)CC[C@H](NC(=O)c2sc4nc(C)ccc4c2N)C3)C[C@H]1N

## Result
1. 7.30 to 9.00
2. 6.70 to 7.30

Hey, quick one: what's pIC50 for each of these?
1. Cc1ccc2c(N)c(C(=O)N[C@H]3CCc4nc(N5C[C@H](N)[C@]6(CCCO6)C5)ccc4C3)sc2n1
2. Cc1ccc2c(N)c(C(=O)N[C@H]3COc4cc(N5CCO[C@H]6CNC[C@H]65)ccc4C3)sc2n1

## Result
1: 5.70 to 6.70; 2: 7.30 to 9.00

* * *

Biological target: USP25 (USP25-His6, Boston Biochem E-546) (Homo sapiens, UniProt Q9UHP3)
Construct: His6; purchased Boston Biochem E-546
Sequence (Q9UHP3 whole entry): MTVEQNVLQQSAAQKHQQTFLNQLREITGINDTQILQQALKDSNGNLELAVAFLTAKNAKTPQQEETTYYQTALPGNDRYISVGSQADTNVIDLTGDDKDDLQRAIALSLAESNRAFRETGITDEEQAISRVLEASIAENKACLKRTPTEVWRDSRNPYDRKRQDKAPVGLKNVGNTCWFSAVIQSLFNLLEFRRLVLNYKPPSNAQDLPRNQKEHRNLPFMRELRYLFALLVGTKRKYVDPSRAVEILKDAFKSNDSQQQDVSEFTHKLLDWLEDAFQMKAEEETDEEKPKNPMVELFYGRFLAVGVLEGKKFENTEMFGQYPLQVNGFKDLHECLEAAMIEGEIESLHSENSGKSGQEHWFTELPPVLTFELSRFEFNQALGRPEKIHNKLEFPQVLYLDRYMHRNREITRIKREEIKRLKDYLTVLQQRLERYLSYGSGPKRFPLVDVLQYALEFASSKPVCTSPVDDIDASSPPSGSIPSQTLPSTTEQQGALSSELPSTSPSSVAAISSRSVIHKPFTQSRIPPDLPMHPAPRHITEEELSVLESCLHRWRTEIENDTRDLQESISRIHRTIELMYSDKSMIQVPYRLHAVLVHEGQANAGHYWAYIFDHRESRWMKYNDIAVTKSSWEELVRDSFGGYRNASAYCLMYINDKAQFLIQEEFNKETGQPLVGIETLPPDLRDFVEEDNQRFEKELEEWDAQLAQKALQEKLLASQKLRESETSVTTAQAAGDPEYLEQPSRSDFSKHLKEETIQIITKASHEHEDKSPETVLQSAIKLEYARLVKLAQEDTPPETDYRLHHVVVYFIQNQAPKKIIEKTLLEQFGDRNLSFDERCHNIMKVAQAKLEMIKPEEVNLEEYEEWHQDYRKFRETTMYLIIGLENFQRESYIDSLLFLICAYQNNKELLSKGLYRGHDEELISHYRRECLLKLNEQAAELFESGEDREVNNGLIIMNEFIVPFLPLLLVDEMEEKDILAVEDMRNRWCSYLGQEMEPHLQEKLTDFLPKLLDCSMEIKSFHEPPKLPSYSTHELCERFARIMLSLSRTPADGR
Assay: Ubiquitin-Rhodamine 110 Assay for USP25 Activity, Example A-2
Assay type: biochemical
Conditions: Ub-Rh110 assay, Example A-2; read-out: USP25 A-2 IC50 range
pIC50: −log10 of the molar value.
parameter: pIC50

- molecule: "CO[C@@H]1CN(c2ccc3c(c2)OC[C@H](NC(=O)c2sc4nc(C)ccc4c2N)C3)C[C@H]1N (single isomer, unassigned)"
  pIC50: "5.70 to 6.70"

Hey, quick one: what's pIC50 for each of these?
1. Cc1nc2sc(C(=O)N[C@H]3COc4cc(N5CCNCC5)cc(F)c4C3)c(N)c2s1 (single isomer, unassigned)
2. Cc1ccc2c(N)c(C(=O)N[C@H]3COc4cc(N5CCNCC5)c(F)cc4C3)sc2n1
3. Cc1ccc2c(N)c(C(=O)N[C@H]3COc4cc(N5CCNCC5)ccc4C3)sc2n1 (single isomer, unassigned)
4. Cc1ccc2c(N)c(C(=O)N[C@H]3COc4cc(N5CCNC[C@@H]5C)ccc4C3)sc2n1

## Result
1. < 5.70
2. 5.70 to 6.70
3. 5.70 to 6.70
4. 7.30 to 9.00

Hey, quick one: what's pIC50 for each of these?
1. Cc1cc(C)c2c(N)c(C(=O)N[C@H]3COc4cc(N5CC6CC(C5)N6)ccc4C3)sc2n1
2. Cc1ccc2c(N)c(C(=O)N[C@H]3COc4cc(N5CC6CNCC(C5)C6(F)F)ccc4C3)sc2n1
3. Cc1ccc2c(N)c(C(=O)N[C@@H]3COc4cc(N5CCN[C@H](C)[C@@H]5C)ccc4C3)sc2n1 (single isomer, unassigned)
4. Cc1cnc2c(N)c(C(=O)N[C@H]3CCc4c(ccc(N5CCNCC5)c4C)C3)sc2n1 (single isomer, unassigned)
5. Cc1ccc2c(N)c(C(=O)N[C@H]3COc4cc(N5CCN[C@@H](C)C5)ccc4C3)sc2n1
6. Cc1cnc2c(N)c(C(=O)N[C@H]3COc4cc(N5CC6COCC(C5)N6)ccc4C3)sc2n1
7. Cc1nc2sc(C(=O)N[C@H]3COc4cc(N5CC6CC(C5)N6)ccc4C3)c(N)c2cc1F

## Result
1: 6.70 to 7.30; 2: 7.30 to 9.00; 3: 5.70 to 6.70; 4: < 5.70; 5: 5.70 to 6.70; 6: 5.70 to 6.70; 7: 6.70 to 7.30

Hey, quick one: what's pIC50 for each of these?
1. Cc1nc2sc(C(=O)N[C@H]3COc4cc(N5CC6CNCC(C5)C6(F)F)ccc4C3)c(N)c2s1
2. CCn1ccc2cc(C(=O)N[C@H]3COc4cc(N5CC6CCCC(C5)N6)ccc4C3)nnc21

## Result
1. 6.70 to 7.30
2. 5.70 to 6.70

* * *

Target: USP25 (USP25-His6, Boston Biochem E-546) (Homo sapiens)
Construct: His6; purchased Boston Biochem E-546
Assay: Ubiquitin-Rhodamine 110 Assay for USP25 Activity, Example A-2
Format: biochemical
Conditions: Ub-Rh110 assay, Example A-2; read-out: USP25 A-2 IC50 range
parameter: IC50

Hey, quick one: what's IC50 for each of these?
1. Cc1nc2sc(C(=O)N[C@H]3COc4cc(N5CCNCC5)ccc4C3)c(N)c2cc1F (single isomer, unassigned)
2. Cc1cc(C)c2c(N)c(C(=O)N[C@H]3COc4cc(N5CC6CNCC(C5)C6(F)F)ccc4C3)sc2n1
3. Cc1ccc2c(N)c(C(=O)N[C@H]3COc4cc(N5CC6CCC(C5)N6)ccc4C3)sc2n1 (single isomer, unassigned)
4. Cc1ccc2c(N)c(C(=O)N[C@@H]3COc4cc(N5CC6CCCC(C5)N6)ccc4C3)sc2n1 (single isomer, unassigned)
5. O=C(N[C@H]1COc2cc(N3CC4CCC(C3)N4)ccc2C1)c1ccc(NCc2ccccc2)nc1
6. COc1nc2sc(C(=O)N[C@H]3COc4cc(N5CCNCC5)ccc4C3)c(N)c2cc1F
7. Cc1nc2sc(C(=O)N[C@H]3COc4cc(N5CCNCC5)ccc4C3)c(N)c2s1
8. Cc1cnc2c(N)c(C(=O)N[C@H]3COc4cc(N5CCNCC5)ccc4C3)sc2n1 (single isomer, unassigned)

## Result
["0.05 to 0.2 µM", "0.001 to 0.05 µM", "0.001 to 0.05 µM", "> 2 µM", "0.05 to 0.2 µM", "0.2 to 2 µM", "0.2 to 2 µM", "0.2 to 2 µM"]

Hey, quick one: what's IC50 for each of these?
1. Cc1ccc2c(N)c(C(=O)N[C@@H]3COc4cc(N5CCNCC5)c(OC(F)(F)F)cc4C3)sc2n1 (single isomer, unassigned)
2. Nc1c(C(=O)N[C@@H]2COc3cc(N4CC5CCC(C4)N5)ccc3C2)sc2ncc(F)cc12 (single isomer, unassigned)

## Result
1. 0.2 to 2 µM
2. > 2 µM

* * *

Target: USP28 (His-tagged USP28-FL-mammalian) (Homo sapiens, UniProt Q96RU2)
Construct: Expression of USP28 (1-1077)-TEV-6*His (pTT5 vector); made in house; host or cells: Expi293f cells (pTT5 vector)
Sequence (Q96RU2 whole entry): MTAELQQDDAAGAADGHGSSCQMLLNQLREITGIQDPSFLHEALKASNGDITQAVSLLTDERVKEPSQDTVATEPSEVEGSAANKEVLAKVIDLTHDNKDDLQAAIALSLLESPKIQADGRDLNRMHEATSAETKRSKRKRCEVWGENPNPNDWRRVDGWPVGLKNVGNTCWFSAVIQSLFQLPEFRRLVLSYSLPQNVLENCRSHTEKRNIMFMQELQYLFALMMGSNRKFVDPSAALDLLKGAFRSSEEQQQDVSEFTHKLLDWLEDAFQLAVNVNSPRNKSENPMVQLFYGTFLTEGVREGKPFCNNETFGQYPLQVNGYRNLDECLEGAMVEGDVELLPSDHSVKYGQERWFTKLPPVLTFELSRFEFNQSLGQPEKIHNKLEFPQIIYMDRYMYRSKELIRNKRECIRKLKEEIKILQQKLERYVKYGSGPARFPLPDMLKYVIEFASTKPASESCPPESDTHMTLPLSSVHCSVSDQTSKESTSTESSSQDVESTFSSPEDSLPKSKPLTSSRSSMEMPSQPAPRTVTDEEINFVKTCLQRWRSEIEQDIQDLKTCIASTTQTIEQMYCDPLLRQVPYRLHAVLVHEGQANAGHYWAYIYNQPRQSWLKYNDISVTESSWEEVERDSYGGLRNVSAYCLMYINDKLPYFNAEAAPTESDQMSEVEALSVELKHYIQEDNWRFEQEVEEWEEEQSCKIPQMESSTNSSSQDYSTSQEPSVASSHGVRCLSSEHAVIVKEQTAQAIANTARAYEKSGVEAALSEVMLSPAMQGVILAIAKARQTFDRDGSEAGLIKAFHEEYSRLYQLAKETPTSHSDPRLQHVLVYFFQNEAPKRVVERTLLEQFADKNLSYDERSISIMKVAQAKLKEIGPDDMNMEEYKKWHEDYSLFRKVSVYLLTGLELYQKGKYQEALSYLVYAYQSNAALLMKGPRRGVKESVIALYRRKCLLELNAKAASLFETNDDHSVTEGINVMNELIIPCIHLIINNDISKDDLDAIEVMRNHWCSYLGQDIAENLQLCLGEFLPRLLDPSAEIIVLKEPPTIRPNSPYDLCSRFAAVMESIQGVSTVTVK
Assay: Ubiquitin-Rhodamine 110 Assay for USP28 Activity, Example A-1(a)
Assay type: biochemical
Conditions: Ubiquitin-Rhodamine 110 assay, Example A-1(a); read-out: USP28 A-1(a) IC50 range
Provide the reported IC50 of each item.

- molecule: "Cc1ccc2c(N)c(C(=O)N[C@H]3COc4cc(N5CC[C@H](C(=O)O)C5)ccc4C3)sc2n1 [Example 6-3]"
  IC50: "50 to 200 nM"

Hey, quick one: what's IC50 for each of these?
1. COC[C@@H]1CN(c2ccc3c(c2)OC[C@H](NC(=O)c2sc4nc(C)ccc4c2N)C3)C[C@H]1N [Example 163]
2. O=C(N[C@H]1COc2cc(N3CCNCC3)ccc2C1)c1ccc(NCc2ccc3c(c2)CCO3)nc1 [Example 472]
3. Cc1ccc2c(N)c(C(=O)N[C@H]3CCc4cc(N5CCN[C@@H](CO)C5)ccc4C3)sc2n1 (single isomer, unassigned) [Example 7-9]
4. Cc1ccc2c(N)c(C(=O)N[C@H]3COc4cc(N5CC6CNCC(C5)O6)c(F)c(F)c4C3)sc2n1 [Example 79]

## Result
1 to 50 nM
200 to 2000 nM
200 to 2000 nM
1 to 50 nM
